- System: Ipomoea hederacea (IPOHE)
- procedureText: Glasshouse herbicidal test, pre- and post-emergence (Table B1)
- Assay type: in vivo
- conditionDescription: post-emergence, 130 g/h, evaluated after 13 days
Kindly supply the reported percentage damage caused to the plant, POST Application IPOHE values for the records listed here.

The compound listed as CCS(=O)(=O)Nc1c(OC(F)(F)C(F)F)ccc(C(=O)Nc2nnnn2C)c1Cl shows percentage damage caused to the plant, POST Application IPOHE equal to 5 (5=80-100%)

Documented percentage damage caused to the plant, POST Application IPOHE of CCS(=O)(=O)N(C)c1c(OC(F)(F)F)ccc(C(=O)Nc2nnnn2C)c1Cl : 5 (5=80-100%)

Lab note: measured percentage damage caused to the plant, POST Application IPOHE of Cn1nnnc1NC(=O)c1ccc(OC(F)(F)F)c(NS(C)(=O)=O)c1Cl was 4 (4=60-79%)

The reported percentage damage caused to the plant, POST Application IPOHE of the compound Cc1c(C(=O)Nc2nnnn2C)ccc(OC(F)(F)F)c1NS(C)(=O)=O was 5 (5=80-100%)

Entry under test: CCN(c1c(OC(F)(F)F)ccc(C(=O)Nc2nnnn2C)c1Cl)S(=O)(=O)CC . Its percentage damage caused to the plant, POST Application IPOHE was 4 (4=60-79%)

Cn1nnnc1NC(=O)c1ccc(OC(F)F)c(NS(C)(=O)=O)c1Cl yielded percentage damage caused to the plant, POST Application IPOHE of 4 (4=60-79%)
